target: M^pro-SARS-CoV-2 (3CL Protease) (Severe acute respiratory syndrome coronavirus 2, UniProt P0DTD1)
Task for the reader: assign each of the following compounds its reported pIC50.
One number for each entry, as −log10 of the molar value.

These recorded examples may help you get a feel for the data.
[[record]]
compound = "CCOP(=O)(OCC)N1C/C(=C\\c2ccccc2)C(=O)C2(C1)C(c1ccccc1)CN(C)C21C(=O)Nc2ccc(Cl)cc21 (stereo not drawn)"
result_type = "pIC50"
numeric_result = 5.02

[[record]]
compound = "CCOP(=O)(OCC)N1C/C(=C\\c2ccc(F)cc2)C(=O)C2(C1)C(c1ccc(F)cc1)CN(C)C21C(=O)Nc2ccc(Cl)cc21 (stereo not drawn)"
result_type = "pIC50"
numeric_result = 4.37


# pIC50 of CCOP(=O)(OCC)N1C/C(=C\c2ccc(Br)cc2)C(=O)C2(C1)C(c1ccc(Br)cc1)CN(C)C21C(=O)Nc2ccccc21 (stereo not drawn) = 4.81
